METHOD_DESCRIPTION: chemical genetic growth profiling, strain panel (AID 1159580);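 further: tested at 20 µM; growth read once vehicle control cultures reached saturation at 30 °C; 1 = growth at the plate median or of vehicle wells; lower values mean less growth of the strain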
EXPERIMENTAL_CONDITIONS: S. cerevisiae deletion strains, growth OD, locus YOL006C, strain TOP1, hits give low values
In all, about 5,500 compounds went through this assay and about 2,000 (36%) were called active. Roughly 18% stayed inconclusive and do not appear here. The list shows a part of the results.
// reported normalized growth per item
Lab note: record the figure alone, no unit after it.

Look over these answered cases.
> print(dat)
                                   compound  measured.value
1  CC(C(=O)O)c1ccc(C(=O)c2cccs2)cc1 (centres undefined)           0.978
2  CO[C@@]1(NC(=O)CSCC#N)C(=O)N2C(C(=O)O)=C(CSc3nnnn3C)CSC21 (some centres undefined)            1.03
3  COC(=O)C(C)c1ccc(C(=O)c2cccs2)cc1 (centres undefined)           0.921

Next, consider the following compound.
Ask: Param item = Cc1ccc(CC(=O)O)cc1 ; retrieve measured normalized growth.
Result: 1.06

* * *

METHOD_DESCRIPTION: chemical genetic growth profiling, strain panel (AID 1159580);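 further: tested at 20 µM; growth read once vehicle control cultures reached saturation at 30 °C; 1 = growth at the plate median or of vehicle wells; lower values mean less growth of the strain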
EXPERIMENTAL_CONDITIONS: S. cerevisiae deletion strains, growth OD, locus YDR334W, strain swr1, hits give low values
Among all 5,500 compounds or so, about 2,000 (36%) were called active. Not shown: some 18% with an inconclusive outcome. The list shows a part of the results.
// reported normalized growth per item
Lab note: record the figure alone, no unit after it.

COMPOUND	normalized growth
Cc1ccc(Cl)c(Nc2ccccc2C(=O)O)c1Cl	0.879

Next, consider the following compound.
Ask: Param item = COC(=O)C[C@H]1C(C)(C)C(=O)[C@@H]2CC3=C(CC[C@]4(C)C3=CC(=O)O[C@H]4c3ccoc3)[C@@]1(C)C2=O ; retrieve measured normalized growth.
Result: 0.961

* * *

METHOD_DESCRIPTION: chemical genetic growth profiling, strain panel (AID 1159580);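 further: tested at 20 µM; growth read once vehicle control cultures reached saturation at 30 °C; 1 = growth at the plate median or of vehicle wells; lower values mean less growth of the strain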
EXPERIMENTAL_CONDITIONS: S. cerevisiae deletion strains, growth OD, locus YOL006C, strain TOP1, hits give low values
Screen size: about 5,500 compounds; about 2,000 (36%) were called active. About 18% were inconclusive and are not listed. This is one part of the list.
MEASURE: normalized growth
Lab note: record the figure alone, no unit after it.

> print(dat)
                                   compound            measure  measured.value
1  CO/N=C(\C(=O)N[C@@H]1C(=O)N2C(C(=O)O)=C(CSc3nc(=O)c(O)nn3C)CS[C@H]12)c1csc(N)n1  normalized growth            1.11
2  Cc1onc(-c2c(Cl)cccc2Cl)c1C(=O)Oc1ccc(Cl)c(Cl)c1  normalized growth            1.07
3  COc1ccc2c(c1O)OCC1c3cc4c(cc3OC21)OCO4 (stereo unspecified)  normalized growth           0.783

Ask: Param item = Cc1ccc(-n2cccc2)c(NC(=S)Nc2ccc(Br)cc2OC(F)(F)F)c1 ; retrieve measured normalized growth.
Result: 0.796

Ask: Repeat with CCN(CC)CCOC(=O)c1ccc(N)cc1
Result: 1.04

Ask: Repeat with CCCCOC(=O)c1ccc(N)cc1
Result: 0.64

Ask: Repeat with CCCCOC(=O)c1ccccc1C(=O)OCCCC
Result: 0.94

Ask: Repeat with Cc1onc(-c2ccccc2)c1NC(=O)Nc1c(Cl)cccc1Cl
Result: 0.803

Ask: Repeat with CCCCNc1ccc(C(=O)OCCN(C)C)cc1
Result: 0.943

Ask: Repeat with COc1ccc2c(c1OC)C(=O)OC2[C@H]1c2c(cc3c(c2OC)OCO3)CCN1C (stereo partly specified)
Result: 1.07

Ask: Repeat with C=C1C(=O)O[C@@H]2C[C@@]3(C)CCC[C@H](C)C3=C[C@H]12
Result: 0.598
